Source: patent US20220143196A1

target_or_system: T1, human MC5R (human, UniProt P33032 1-325)
T1 construct: whole, on cells
T1 sequence (P33032 whole entry): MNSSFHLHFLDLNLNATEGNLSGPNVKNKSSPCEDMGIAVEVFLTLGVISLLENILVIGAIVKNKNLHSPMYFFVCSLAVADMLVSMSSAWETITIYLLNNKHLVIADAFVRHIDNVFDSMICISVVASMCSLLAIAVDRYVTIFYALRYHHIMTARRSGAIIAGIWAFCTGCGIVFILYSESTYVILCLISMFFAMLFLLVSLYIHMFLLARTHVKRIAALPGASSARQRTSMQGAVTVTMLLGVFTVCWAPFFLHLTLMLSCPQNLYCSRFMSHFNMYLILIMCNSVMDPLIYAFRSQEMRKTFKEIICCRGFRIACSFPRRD
assay_method_text: competitive binding vs 125I-NDP-α-MSH on whole HEK293 cells overexpressing human MC5R
result_type: pKi
Quick note: pKi means taking -log10 of the concentration in moles per liter.

**Q:** Requested read-out: pKi. Entry: CXLDHFRWK (not fully specified; Cys 1 thiol joined by a disulfide to a 2-thioethyl carbonate linker carrying camptothecin; 6-aminohexanoic acid (6-Ahx) at 2; Nle at 3; D-Phe at 6; lactam cyclization between Asp 4 and Lys 9 side chains; C-terminal amide; no N-terminal acetyl on Nle (replaced by the Cys-6-Ahx spacer), also called CPT-MT-II (1); camptothecin-MT-II (1)) [camptothecin (CPT)-MT-II conjugate (1)]
**A:** 6.71
